The reader will find reported EC50 values listed item by item below.
- targetEntity: KCNQ 2/3 channels (HEK293 cells stably expressing human KCNQ2 and KCNQ3 subunits) (Homo sapiens, UniProt O43525+O43526)
- testDescription: KCNQ2/3 channel activation, thallium flux FLIPR assay with BTC-AM dye
- conditions: HEK293 cells expressing human KCNQ2 and KCNQ3; thallium flux, FLIPR

Please review the following examples before continuing.
O=C(C[C@@H]1C[C@@H]2C=C[C@H]1C2)Nn1nc(C2CCC2)c2ccccc2c1=O = < 100 nM
O=C(Cc1cccc(F)c1F)Nn1nc(-c2ccccc2)c2ccccc2c1=O = 1000 to 10000 nM
Cc1ccc(-c2nn(NC(=O)CC34CC5CC(CC(C5)C3)C4)c(=O)c3ccccc23)cc1C = < 100 nM

Query string: Request the reported EC50 associated with "O=C(CC1(c2ccc(Cl)cc2)CC1)Nn1nc(C(F)(F)F)c2ccccc2c1=O"
Result string: > 10000 nM
